Origin of values: ChEMBL document CHEMBL5058577

# System: HEK-293T
# Assay Comment: Multiplex assay against HEK293T
# Format: toxicity, cell-based
# Condition Notes: human, 12 h, 10 µM, compound concentration 10 uM, replicate 1
For each of the compounds below, state its Population Tubulin-Different-Phenotype (%).
One number for each entry, in %.

Hi there! I need Population Tubulin-Different-Phenotype (%) for each item below, if you can.
1. O=S(=O)(c1ccccc1)c1cnc2c(N3CCNCC3)cccc2c1 [INTEPIRDINE]
2. Cc1ccc(F)cc1C(=O)Nc1ccc(C(=O)N2Cc3cccn3Cc3ccccc32)c(Cl)c1
3. Oc1c(CN2CCN(c3ccccn3)CC2)cc(Cl)c2cccnc12
4. COc1cc(C(=O)N(CCCc2ccccc2)Cc2ccc(CC(=O)O)cc2)cc(OC)c1C
5. CNC[C@H](O)c1ccc(O)c(O)c1 [EPINEPHRINE]

Result:
1: 58; 2: 78; 3: 20; 4: 52; 5: 39

====

# Test system: Fibroblast
# Assay Comment: Multiplex assay against human fibroblast
# Format: toxicity, cell-based
# Condition Notes: 12 h, 1 µM, compound concentration 1 uM, replicate 2
For each of the compounds below, state its Population Normal (%).
Answers are plain numbers, in %.

Compound | Population Normal (%)
CC1(COc2ccc3c(c2)ncn3-c2ccc3cccc(N4CCC(N)CC4)c3n2)COC1 [CRENOLANIB] | 95
CCNC1(C(N)=O)CCN(c2ncnc3c2nc(-c2ccccc2Cl)n3-c2ccc(Cl)cc2)CC1 [OTENABANT] | 97
O=C(NCCO)c1cccc(-c2cc(Nc3ccc(OC(F)(F)F)cc3)ncn2)c1 | 95
O=C(O)c1cc2ccccc2c(Cc2c(O)c(C(=O)O)cc3ccccc23)c1O [PAMOIC ACID] | 93
N#Cc1c(N)nc(SCc2csc(-c3ccc(Cl)cc3)n2)c(C#N)c1-c1ccc(OCCO)cc1 [CAPADENOSON] | 98

Hi there! I need Population Normal (%) for each item below, if you can.
1. O=S(=O)(c1ccccc1)c1cnc2c(N3CCNCC3)cccc2c1 [INTEPIRDINE]
2. CC(C)(C)c1ccc(S(=O)(=O)Nc2ccc(Cl)cc2C(=O)c2cc[n+]([O-])cc2)cc1 [VERCIRNON]
3. CN(C)CCCc1cc(C(=O)Nc2ccc(-c3ccncc3)cc2)ccc1O.Cl.Cl
4. Oc1c(CN2CCN(c3ccccn3)CC2)cc(Cl)c2cccnc12
5. COc1c(C)cc(NC(=O)c2nn(Cc3ccc(F)cc3)c3c2CN(C(=O)c2ccc[nH]2)C[C@]3(C)C(N)=O)cc1C
6. CCOc1c2c(c(OCC)c3ncccc13)CN(c1ccc(CS(=O)(=O)NC(=O)Cc3ccccc3OC)cc1C)C2=O
7. Cc1nc2ccc(Oc3ccc(F)cc3)cc2c(=O)n1C[C@H]1CCCN(C(C)C)C1.Cl
8. CCCC(CCC)C(=O)O [VALPROIC ACID]

Result:
95
92
97
94
96
95
90
91

Request: Return reported Population Normal (%) for target or system Fibroblast, item C[C@H](NC(=O)c1c(C(F)F)nn(C)c1Oc1cccc(C(F)(F)F)c1)c1ccc(C(=O)O)cc1 [PALUPIPRANT] .
Result: 93

====

For each of the compounds below, state its Population Fragmented Nuclei (%).
# System: Fibroblast
# Assay Comment: Multiplex assay against human fibroblast
# Type: toxicity, cell-based
# Condition Notes: 48 h, 1 µM, compound concentration 1 uM, replicate 2
Numbers only, in %.

Solved entries:
Compound | Population Fragmented Nuclei (%)
C[C@H](NC(=O)c1c(C(F)F)nn(C)c1Oc1cccc(C(F)(F)F)c1)c1ccc(C(=O)O)cc1 | 30
Cc1ccc(C(C)(O)c2nc3ccccc3s2)c(C)c1 (stereo not given) | 28
CC(C)(C)c1ccc(S(=O)(=O)Nc2ccc(Cl)cc2C(=O)c2cc[n+]([O-])cc2)cc1 | 32
CN1CCN2c3ncccc3Cc3ccccc3C2C1 (stereo not given) | 36
CN(C)c1ccnc2sc3c(=O)n(N4CCCCCC4)cnc3c12 | 36

Hi there! I need Population Fragmented Nuclei (%) for each item below, if you can.
1. CSCC[C@H](NC=O)C(=O)N[C@@H](CC(C)C)C(=O)N[C@@H](Cc1ccccc1)C(=O)O
2. Cc1nc2ccc(Oc3ccc(F)cc3)cc2c(=O)n1C[C@H]1CCCN(C(C)C)C1.Cl
3. Cl.Clc1ccc2nsnc2c1NC1=NCCN1 [TIZANIDINE HYDROCHLORIDE]

Result:
[36, 36, 29]
